The origin of these recorded values is PubChem BioAssay (NCI).

Test system: OVCAR-4 ovarian
MEASUREMENT_NOTES: NCI-60 one-dose screen, 48 h (100 = growth as untreated, 0 = no growth, -100 = all killed)
APPLIED_CONDITIONS: 10 µM unless noted
Compounds without any hit were thinned out: in the full panel of roughly 83,000, 20% have a hit.
PROPERTY_LABEL: growth (%)

MOLECULE: CCCc1cc(C(N)=S)ccn1
STUDY_TARGET: OVCAR-4 ovarian
READOUT_UNIT: %
EXPERIMENTAL_VALUE: 110
--
MOLECULE: COc1nc2ccc(C)cc2cc1/C=[N+](\[O-])c1ccccc1
STUDY_TARGET: OVCAR-4 ovarian
READOUT_UNIT: %
EXPERIMENTAL_VALUE: 83.7
--
MOLECULE: COc1cc2c(cc1OCCCOC1=C=C=C(c3ccc4c(c3)c3cc(-c5ccc(OCCCOc6cc7c(cc6OC)C(=O)N6CCC[C@H]6C=N7)cc5)ccc3n4S(=O)(=O)c3ccc(C)cc3)C=C1)N=C[C@@H]1CCCN1C2=O
STUDY_TARGET: OVCAR-4 ovarian
READOUT_UNIT: %
EXPERIMENTAL_VALUE: 58.2
--
MOLECULE: Brc1ccc(/C=C(/C2=NCCN2)n2ccc3ccccc32)cc1
STUDY_TARGET: OVCAR-4 ovarian
READOUT_UNIT: %
EXPERIMENTAL_VALUE: 67.7
--
MOLECULE: COC1=CC(c2ccc[nH]2)=N/C1=C\c1[nH]c(C)c(C(=O)Oc2ccccc2)c1C
STUDY_TARGET: OVCAR-4 ovarian
READOUT_UNIT: %
EXPERIMENTAL_VALUE: -48.8
--
MOLECULE: CN(C)CCN1C(=O)c2c(c3c4ccccc4n4c3c3c2c2ccccc2n3C2CC(O)C(O)C4(C)O2)C1=O (configuration not stated)
STUDY_TARGET: OVCAR-4 ovarian
READOUT_UNIT: %
EXPERIMENTAL_VALUE: 29.3
--
MOLECULE: O=C(c1ccc(Nc2nccc(NCCCNc3ccnc4cc(Cl)ccc34)n2)cc1)N1CCCCC1
STUDY_TARGET: OVCAR-4 ovarian
READOUT_UNIT: %
EXPERIMENTAL_VALUE: 48.4
